Recorded values, source PubChem BioAssay (Tox21).

# Test method notes: qHTS assay for small molecule disruptors of the mitochondrial membrane potential (AID 720635)
# Condition description: HepG2 mitochondrial membrane potential, Mito-MPS dye ratio; series mostly up to 83.2 µM
Records with an inconclusive call do not appear. Calls of active or inactive are those of the source. Calls come from the whole dose curve; as a rule, active = well fitted inhibition curve with a large enough effect in the signal ratio in the repeat runs; inconclusive = weak or mixed curves, or effect the other way; inactive = flat fitted curve, though single readings scatter; the % refers to the signal ratio.
Respond only with the outcome that fits, drawn from 1 = active, 0 = inactive

Before answering, review these 3 worked examples.
Compound	Label class
CCCN(CCC)C(=O)SCC	0
CC(COCC(C)OC(=O)c1ccccc1)OC(=O)c1ccccc1 (stereo unspecified)	0
Cc1cc(CC(=O)O)n(C)c1C(=O)c1ccc(Cl)cc1	0

In: Lab log entry: `O=C1OC(=O)c2c(Cl)c(Cl)c(Cl)c(Cl)c21` — outcome as called in the assay?
Out: 0

In: Would you kindly repeat that for `CC(=O)Nc1ccc(CC(=O)O)cc1` ?
Out: 0

In: Would you kindly repeat that for `CCc1cccc(O)c1` ?
Out: 0

In: Would you kindly repeat that for `COc1ccc(N)c(OC)c1` ?
Out: 1

In: Would you kindly repeat that for `CC1(C)[C@@H](O[C@H]2O[C@H](C(=O)O)[C@@H](O)[C@H](O)[C@H]2O[C@@H]2O[C@H](C(=O)O)[C@@H](O)[C@H](O)[C@H]2O)CC[C@]2(C)[C@H]3C(=O)C=C4[C@@H]5C[C@@](C)(C(=O)O)CC[C@]5(C)CC[C@@]4(C)[C@]3(C)CC[C@@H]12` ?
Out: 0

In: Would you kindly repeat that for `CCn1cc(C(=O)O)c(=O)c2cc3c(cc21)OCO3` ?
Out: 0

In: Would you kindly repeat that for `COC(=O)OC` ?
Out: 0

In: Would you kindly repeat that for `CCCCCC(C)=O` ?
Out: 0
